Biological target: COX-2 (Ovis aries, UniProt P79208)
Construct: purified enzyme from ewe placenta; from tissue; host or cells: ewe placenta
Sequence (P79208 17-603): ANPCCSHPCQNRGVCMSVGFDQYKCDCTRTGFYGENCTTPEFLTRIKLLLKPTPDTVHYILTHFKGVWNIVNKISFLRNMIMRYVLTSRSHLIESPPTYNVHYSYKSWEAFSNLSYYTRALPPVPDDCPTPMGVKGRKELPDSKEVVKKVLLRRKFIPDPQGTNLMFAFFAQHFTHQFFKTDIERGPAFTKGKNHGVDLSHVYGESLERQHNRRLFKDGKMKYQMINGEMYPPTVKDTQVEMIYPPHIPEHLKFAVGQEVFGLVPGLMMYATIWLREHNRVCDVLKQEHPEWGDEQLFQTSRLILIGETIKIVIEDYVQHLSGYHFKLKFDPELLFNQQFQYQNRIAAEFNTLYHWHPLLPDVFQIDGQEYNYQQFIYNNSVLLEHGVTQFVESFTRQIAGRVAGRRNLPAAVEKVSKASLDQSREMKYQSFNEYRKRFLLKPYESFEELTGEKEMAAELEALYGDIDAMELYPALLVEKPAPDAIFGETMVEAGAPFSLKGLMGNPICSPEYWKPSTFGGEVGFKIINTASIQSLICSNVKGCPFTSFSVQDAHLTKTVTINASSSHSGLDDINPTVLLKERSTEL
Test: Inhibition of COX-2 enzymatic activity (purified enzyme from ewe placenta, PGE2 by EIA)
Type: biochemical
Conditions: ratio of IC50 COX-1 / IC50 COX-2
Reported Selectivity COX-1/COX-2 ratio by item:

query: Find the recorded Selectivity COX-1/COX-2 ratio belonging to NS(=O)(=O)c1ccc(-c2csc(=O)n2-c2cccc(F)c2)cc1 and report it.
result: 1367

query: Find the recorded Selectivity COX-1/COX-2 ratio belonging to COc1ccc(-n2c(-c3ccc(S(N)(=O)=O)cc3)csc2=S)cc1Cl and report it.
result: 9

query: Find the recorded Selectivity COX-1/COX-2 ratio belonging to NS(=O)(=O)c1ccc(-c2csc(=O)n2-c2ccc(Cl)c(Cl)c2)cc1 and report it.
result: 14

----------
Biological target: COX-2 (Ovis aries, UniProt P79208)
Construct: purified enzyme from ewe placenta; from tissue; host or cells: ewe placenta
Sequence (P79208 17-603): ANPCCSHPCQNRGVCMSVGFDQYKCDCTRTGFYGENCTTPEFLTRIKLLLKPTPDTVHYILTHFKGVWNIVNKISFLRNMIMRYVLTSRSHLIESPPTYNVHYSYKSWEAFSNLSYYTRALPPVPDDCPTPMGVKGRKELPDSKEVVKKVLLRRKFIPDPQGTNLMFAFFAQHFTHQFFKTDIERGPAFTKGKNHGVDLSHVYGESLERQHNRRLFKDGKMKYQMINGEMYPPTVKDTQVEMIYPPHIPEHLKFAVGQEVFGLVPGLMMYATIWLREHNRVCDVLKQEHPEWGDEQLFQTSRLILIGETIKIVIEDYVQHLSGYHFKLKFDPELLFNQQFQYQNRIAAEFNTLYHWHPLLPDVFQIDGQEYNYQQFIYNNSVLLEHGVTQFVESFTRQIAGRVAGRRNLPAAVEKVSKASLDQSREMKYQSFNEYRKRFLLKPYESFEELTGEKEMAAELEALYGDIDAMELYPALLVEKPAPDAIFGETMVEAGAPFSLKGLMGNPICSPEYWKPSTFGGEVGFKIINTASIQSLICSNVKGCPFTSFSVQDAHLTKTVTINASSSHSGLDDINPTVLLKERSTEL
Test: Inhibition of COX-2 enzymatic activity (purified enzyme from ewe placenta, PGE2 by EIA)
Assay type: biochemical
Conditions: ratio of IC50 COX-1 / IC50 COX-2
The threshold is 90. Values of Selectivity COX-1/COX-2 ratio beneath it are tagged Y; values meeting or exceeding it are tagged N.

// below: answered compounds
SMI	TESTED TARGET	CLASS
NS(=O)(=O)c1ccc(-c2csc(=S)n2-c2cccc(F)c2)cc1	COX-2 (Ovis aries, UniProt P79208)	N
CS(=O)(=O)c1ccc(-c2csc(=O)n2-c2ccc(Cl)cc2)cc1	COX-2 (Ovis aries, UniProt P79208)	N
NS(=O)(=O)c1ccc(-c2csc(=S)n2-c2ccc(F)c(F)c2)cc1	COX-2 (Ovis aries, UniProt P79208)	N

query: Input CS(=O)(=O)c1ccc(-c2csc(=S)n2-c2cccc(Cl)c2)cc1 ; condition: Selectivity COX-1/COX-2 ratio strictly below 90. Does it hold?
result: Y

query: Input NS(=O)(=O)c1ccc(-c2csc(=S)n2-c2ccc(F)cc2)cc1 ; condition: Selectivity COX-1/COX-2 ratio strictly below 90. Does it hold?
result: Y

----------
Sequence of the target: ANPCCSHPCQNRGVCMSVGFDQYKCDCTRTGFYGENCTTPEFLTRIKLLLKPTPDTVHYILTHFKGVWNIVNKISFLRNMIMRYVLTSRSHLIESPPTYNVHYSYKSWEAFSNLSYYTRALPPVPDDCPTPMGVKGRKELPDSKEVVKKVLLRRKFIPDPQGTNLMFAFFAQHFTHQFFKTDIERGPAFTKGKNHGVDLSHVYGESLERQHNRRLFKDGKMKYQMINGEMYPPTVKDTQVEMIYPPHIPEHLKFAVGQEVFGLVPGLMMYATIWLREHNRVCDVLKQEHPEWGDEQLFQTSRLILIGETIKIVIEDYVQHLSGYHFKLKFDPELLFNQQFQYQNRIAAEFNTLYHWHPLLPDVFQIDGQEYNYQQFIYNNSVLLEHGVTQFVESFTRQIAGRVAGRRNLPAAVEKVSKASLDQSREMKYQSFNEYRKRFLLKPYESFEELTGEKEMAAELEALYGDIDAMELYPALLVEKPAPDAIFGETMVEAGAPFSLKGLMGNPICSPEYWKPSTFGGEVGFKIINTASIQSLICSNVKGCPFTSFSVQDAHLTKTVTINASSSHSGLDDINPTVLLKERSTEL
Reported IC50 by item:
Value expressed in nM; do not type the unit.

Example entries begin here.
COMPOUND	IC50 / nM
NS(=O)(=O)c1ccc(-c2csc(=O)n2-c2ccc(Cl)c(Cl)c2)cc1 [Example 39]	140
NS(=O)(=O)c1ccc(-c2csc(=S)n2-c2ccc(F)c(F)c2)cc1 [Example 30]	210
NS(=O)(=O)c1ccc(-c2csc(=S)n2-c2cccc(F)c2)cc1 [Example 29]	650

Attention now shifts to the item below.
query: Find the recorded IC50 belonging to COc1ccc(-n2c(-c3ccc(S(N)(=O)=O)cc3)csc2=S)cc1Cl [Example 20] and report it.
result: 2000

----------
Reported pIC50 by item:
Target protein (sequence): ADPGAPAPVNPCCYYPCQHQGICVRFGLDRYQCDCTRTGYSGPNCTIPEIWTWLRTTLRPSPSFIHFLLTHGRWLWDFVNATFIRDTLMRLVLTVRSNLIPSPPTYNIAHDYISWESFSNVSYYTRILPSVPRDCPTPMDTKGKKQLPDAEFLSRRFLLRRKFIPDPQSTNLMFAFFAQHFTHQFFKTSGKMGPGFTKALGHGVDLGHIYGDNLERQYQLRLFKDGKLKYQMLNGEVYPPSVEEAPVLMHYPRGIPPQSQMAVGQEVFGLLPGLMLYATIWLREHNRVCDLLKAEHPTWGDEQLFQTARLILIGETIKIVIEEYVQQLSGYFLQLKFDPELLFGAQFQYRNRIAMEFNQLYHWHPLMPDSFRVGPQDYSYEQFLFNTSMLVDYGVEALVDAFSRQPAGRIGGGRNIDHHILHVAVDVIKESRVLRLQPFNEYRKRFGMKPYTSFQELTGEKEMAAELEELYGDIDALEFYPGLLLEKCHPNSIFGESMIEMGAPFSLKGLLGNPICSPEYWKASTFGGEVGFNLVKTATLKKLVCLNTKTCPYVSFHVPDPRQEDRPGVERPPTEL
pIC50 is defined as minus the log10 of a concentration measured in mol/L.

COMPOUND	pIC50
NS(=O)(=O)c1ccc(-c2csc(=S)n2-c2cccc(F)c2)cc1 [Example 29]	3.59

query: Find the recorded pIC50 belonging to NS(=O)(=O)c1ccc(-c2csc(=S)n2-c2ccc(F)cc2)cc1 [Example 13] and report it.
result: 4.49

query: Find the recorded pIC50 belonging to NS(=O)(=O)c1ccc(-c2csc(=O)n2-c2cccc(F)c2)cc1 [Example 45] and report it.
result: 3.47
